Provenance of the data: patent US5304604A

# SYSTEM: collagenase (Homo sapiens)
# Sequence (P03956 100-469): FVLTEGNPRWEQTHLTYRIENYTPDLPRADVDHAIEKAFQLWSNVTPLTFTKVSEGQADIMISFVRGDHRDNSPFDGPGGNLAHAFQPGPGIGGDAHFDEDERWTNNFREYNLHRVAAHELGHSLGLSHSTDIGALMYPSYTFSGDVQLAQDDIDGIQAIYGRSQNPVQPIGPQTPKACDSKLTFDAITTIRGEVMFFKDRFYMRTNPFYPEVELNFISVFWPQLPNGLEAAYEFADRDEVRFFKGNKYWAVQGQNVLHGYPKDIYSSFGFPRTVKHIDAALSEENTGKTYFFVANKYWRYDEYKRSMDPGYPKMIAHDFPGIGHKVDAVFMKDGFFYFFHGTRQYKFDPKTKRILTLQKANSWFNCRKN
# ASSAY EXPLANATION: Collagenase Inhibition Activity (procedure of Cawston and Barrett)
# Assay type: biochemical
# TEST CONDITIONS: acetylated 14C collagen, 37°, 16 hours, pH 7.5; read-out: IC50 (inhibitor concentration effecting 50% inhibition of the collagenase)
# key: entry, value: IC50

MOLECULE	SYSTEM	UOM	IC50
CC(C)C[C@H](CC(=O)NO)C(=O)N[C@@H](Cc1ccccc1)C(=O)NCc1cccnc1 [Example 6]	collagenase (Homo sapiens)	nM	20
CC(C)C[C@@H](C(=O)N[C@@H](Cc1ccccc1)C(=O)NCCN1CCOCC1)[C@H](C)C(=O)NO [Example 11]	collagenase (Homo sapiens)	nM	15
CC(C)C[C@H](CC(=O)NO)C(=O)N[C@@H](Cc1ccccc1)C(=O)NCCN1CCCC1 [Example 3]	collagenase (Homo sapiens)	nM	70
